binders and their reported ELISA absorbance at 450 nm
biological target: T1, recombinant human DLL4 (Cat# 1506-D4/CF, R&D Systems) (human, UniProt Q9NR61 27-529); assay: ELISA, DLL4 coated, Fab 1.23 nM
T1 construct: Bought protein; also called hDLL4; rHuman DLL4
Write the number in A450 without appending the unit.

binder: Fab VH5-51_IGHD5-18*01>3_IGHJ4*01 G100K/G104T G24T/S28R/G35V & V3-4_IGLJ1*01 V91L/S96P S52G (Fab, V domains shown, Fab made in E. coli: VH on CH1 with His6 and Flag tags (Plasmid A), VL on lambda CL (Plasmid E); also called H: KT TRV & L: LP S52G) VH: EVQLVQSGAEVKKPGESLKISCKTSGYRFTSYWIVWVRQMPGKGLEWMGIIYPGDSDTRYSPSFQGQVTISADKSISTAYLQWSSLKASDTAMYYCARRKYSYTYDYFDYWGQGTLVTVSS VL: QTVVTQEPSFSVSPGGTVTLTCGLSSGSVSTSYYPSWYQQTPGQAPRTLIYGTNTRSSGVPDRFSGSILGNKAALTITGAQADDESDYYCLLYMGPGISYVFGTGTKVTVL
property: ELISA absorbance at 450 nm
measurement-units: A450
value: 0.03
//
binder: Fab VH5-51_IGHD5-18*01>3_IGHJ4*01 G100K/G104T G24T/S28R/G35V & V3-4_IGLJ1*01 (Fab, V domains shown, Fab made in E. coli: VH on CH1 with His6 and Flag tags (Plasmid A), VL on lambda CL (Plasmid E); also called H: KT TRV & L: wt) VH: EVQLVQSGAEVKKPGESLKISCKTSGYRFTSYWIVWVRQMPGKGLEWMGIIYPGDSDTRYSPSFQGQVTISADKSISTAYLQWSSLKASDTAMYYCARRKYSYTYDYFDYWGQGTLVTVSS VL: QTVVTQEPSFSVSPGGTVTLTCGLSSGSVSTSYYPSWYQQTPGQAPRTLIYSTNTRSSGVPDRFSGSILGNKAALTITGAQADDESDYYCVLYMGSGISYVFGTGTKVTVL
property: ELISA absorbance at 450 nm
measurement-units: A450
value: 0.01

Next item in the queue.
Specify ELISA absorbance at 450 nm for Fab VH5-51_IGHD5-18*01>3_IGHJ4*01 G100K/G104T G24T/S28R/G35V & V3-4_IGLJ1*01 V91L/S96P S52M (Fab, V domains shown, Fab made in E. coli: VH on CH1 with His6 and Flag tags (Plasmid A), VL on lambda CL (Plasmid E); also called H: KT TRV & L: LP S52M) VH: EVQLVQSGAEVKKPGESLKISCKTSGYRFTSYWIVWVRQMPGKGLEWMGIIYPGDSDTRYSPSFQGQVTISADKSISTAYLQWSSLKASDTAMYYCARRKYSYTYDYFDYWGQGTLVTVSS VL: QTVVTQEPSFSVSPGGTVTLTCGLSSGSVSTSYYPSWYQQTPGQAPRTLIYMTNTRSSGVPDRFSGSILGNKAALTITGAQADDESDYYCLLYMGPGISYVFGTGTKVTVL and stop. 0.03
